Test system: NCI-H3122
Assay: relative viability (nuclei count vs DMSO), 5 days (fraction); higher = more cells survive
Condition Notes: first compound 0.1265 µM
relative viability values for the molecules below.
Measurement Kind: relative viability

| Molecule | Value |
| --- | --- |
| Cc1sc2c(c1C)C(c1ccc(Cl)cc1)=N[C@@H](CC(=O)OC(C)(C)C)c1nnc(C)n1-2 [JQ1] + O=C(CCCCCCC(=O)Nc1ccccc1)NO [Vorinostat] (partner 1 µM) | 0.506 |
| Cc1sc2c(c1C)C(c1ccc(Cl)cc1)=N[C@@H](CC(=O)OC(C)(C)C)c1nnc(C)n1-2 [JQ1] + CC(=O)c1c(C)c2cnc(Nc3ccc(N4CCNCC4)cn3)nc2n(C2CCCC2)c1=O [Palbociclib] (partner 0.5 µM) | 0.203 |
| Cc1sc2c(c1C)C(c1ccc(Cl)cc1)=N[C@@H](CC(=O)OC(C)(C)C)c1nnc(C)n1-2 [JQ1] + Cc1nc(Nc2ncc(C(=O)Nc3c(C)cccc3Cl)s2)cc(N2CCN(CCO)CC2)n1 [Dasatinib] (partner 0.075 µM) | 0.551 |
| Cc1sc2c(c1C)C(c1ccc(Cl)cc1)=N[C@@H](CC(=O)OC(C)(C)C)c1nnc(C)n1-2 [JQ1] + C[C@@H](Oc1cc(-c2cnn(C3CCNCC3)c2)cnc1N)c1c(Cl)ccc(F)c1Cl [Crizotinib] (partner 1 µM) | 0.315 |
| Cc1sc2c(c1C)C(c1ccc(Cl)cc1)=N[C@@H](CC(=O)OC(C)(C)C)c1nnc(C)n1-2 [JQ1] + C[C@]1(O)C[C@@H](c2nc(-c3ccc4ccc(-c5ccccc5)nc4c3)c3c(N)nccn32)C1 [Linsitinib] (partner 1 µM) | 0.931 |
